Experiment: self-splicing fitness, log relative to wild type (ln ratio); higher = more splicing; Tetrahymena group I intron in knt gene, E. coli kanamycin selection, DiMSum; sequences stand for … in CUCUCU…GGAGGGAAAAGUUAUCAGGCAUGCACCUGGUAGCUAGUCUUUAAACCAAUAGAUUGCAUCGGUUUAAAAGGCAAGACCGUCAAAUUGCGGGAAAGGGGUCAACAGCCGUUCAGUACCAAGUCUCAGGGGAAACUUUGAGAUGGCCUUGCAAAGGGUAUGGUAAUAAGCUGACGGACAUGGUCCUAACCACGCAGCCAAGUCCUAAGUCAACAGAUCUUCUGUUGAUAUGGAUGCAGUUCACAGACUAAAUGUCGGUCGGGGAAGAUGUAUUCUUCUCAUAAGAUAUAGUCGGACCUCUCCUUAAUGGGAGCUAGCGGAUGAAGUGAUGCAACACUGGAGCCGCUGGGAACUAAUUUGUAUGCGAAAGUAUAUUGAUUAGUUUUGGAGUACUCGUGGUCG;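 further: selection with 25 µg/mL kanamycin versus none on LB agar overnight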
Settings: 30 °C
Please use label 1 whenever self-splicing fitness (ln) is not below -2, and label 0 whenever it is.

input.sequence | assigned.category
GAUUAGCAAUAUUACGAUGC | label 1
UGGAAGCAAUAUUACGCACA | label 1
AACUAGCAAUAUUACGAUGA | label 1
AUACAGCAAUAUUACGGUCU | label 1
UUUUAGCAAUAUUACGUAUA | label 0
CUUGAGCAAUAUUACGCGAA | label 0
AUGGAGCAAUAUUACGUCCU | label 1
CGAAAGCAAUAUUACGAGUU | label 0
UACUAGCAAUAUUACGGGGU | label 0
UCUCAGCAAUAUUACGGCGC | label 0
CGCUAGCAAUAUUACGAGCC | label 1
CCAUAGCAAUAUUACGACUU | label 0
GGAAAGCAAUAUUACGUGGG | label 0
UACCAGCAAUAUUACGGUAA | label 1
UAACAGCAAUAUUACGCUAG | label 1
AACUAGCAAUAUUACGAAUC | label 0
ACAAAGCAAUAUUACGAAGC | label 0
CACCAGCAAUAUUACGCUUG | label 1
GCUAAGCAAUAUUACGCCGU | label 0
CAAAAGCAAUAUUACGGGGG | label 0
GGAAAGCAAUAUUACGCGCG | label 1
